# credit: PubChem BioAssay (NCATS)

Biological target: Glutathione peroxidase 1 (Homo sapiens)
Experiment: Primary qHTS Assay for Inhibitors of Recombinant Selenoprotein Glutathione Peroxidase 1 (GPX1) (AID 1845191); further: nearly all actives have a fitted effect of over 65% in size
Conditions: recombinant GPX1, GR-coupled NADPH fluorescence, 15 min; series mostly up to 48.8 µM
Records with an inconclusive call do not appear. Active and inactive are the calls of the source. The call rests on the fitted dose curve; in most records, active means well fitted inhibition curve with a large enough effect; inconclusive means small, poorly fitted or top-dose-only effect; inactive means flat fitted curve, though single readings scatter.
Your reply should match one of these outcome classes. TRUE = active, FALSE = inactive

Incoming: Just curious, what result did "O=C(Oc1ccccc1)c1ccccc1O" get here?
Outgoing: FALSE

Incoming: Just curious, what result did "O=C(O)CNC(=O)CNC(=O)CNC(=O)CSC(=O)c1ccccc1" get here?
Outgoing: FALSE

Incoming: Just curious, what result did "CC1(C)O[C@@H]2C[C@H]3[C@@H]4CCC5=CC(=O)C=C[C@]5(C)[C@@]4(F)[C@@H](O)C[C@]3(C)[C@]2(C(=O)CO)O1" get here?
Outgoing: FALSE

Incoming: Just curious, what result did OCCOCCN1CCN(C(c2ccccc2)c2ccc(Cl)cc2)CC1 (stereo not given) get here?
Outgoing: FALSE

Incoming: Just curious, what result did "COc1c(N2C[C@@H]3CCCN[C@@H]3C2)c(F)cc2c(=O)c(C(=O)O)cn(C3CC3)c12" get here?
Outgoing: TRUE

====

Test system: MKL-1
Test: qHTS assay to identify novel small-molecules to repurpose for Merkel cell carcinoma treatment (AID 1296009); further: nearly all actives have a fitted effect of over 60% in size
Conditions: MCC and control cell lines, CellTiter-Glo viability, 72 h; series mostly up to 46 µM
From the text: MCC is a rare and aggressive neuroendocrine skin cancer with limited treatment options. Approximately 80% of MCCs have the Merkel cell polyomavirus (MCPyV) DNA integrated into the host genome (virus-positive: VP-MCC) and viral oncogenes drive oncogenesis. The remaining MCCs are virus-negative (VN-MCC) and are caused by UV mutagenesis. […] Using cell viability as a readout (CellTiter-Glo assay) we found both overlapping and distinct drugs that can be repurposed for the treatment of VP-MCC and VN-MCC. […]
Inconclusive results are not listed. The source made the active and inactive calls. Calls come from the whole dose curve; as a rule, active = well fitted inhibition curve with a large enough effect; inconclusive = small, poorly fitted or top-dose-only effect; inactive = flat fitted curve, though single readings scatter.
Your reply should match one of these outcome classes. 1 = active, 0 = inactive

Incoming: Just curious, what result did "Fc1ccc(C(c2ccc(F)cc2)N2CCNCC2)cc1" get here?
Outgoing: 0

Incoming: Just curious, what result did "Nc1nnnn1-c1ccccc1" get here?
Outgoing: 0

Incoming: Just curious, what result did "NS(=O)(=O)c1cc2c(cc1Cl)CN(C1CCCCC1)C2=O" get here?
Outgoing: 0

Incoming: Just curious, what result did "Cc1cc(=O)oc2cc(O[C@@H]3SC[C@@H](O)[C@H](O)[C@H]3O)ccc12" get here?
Outgoing: 0

Incoming: Just curious, what result did "CCOC(=O)O[C@]1(C(=O)OCCl)CC[C@H]2[C@@H]3CCC4=CC(=O)C=C[C@]4(C)[C@H]3[C@@H](O)C[C@@]21C" get here?
Outgoing: 0

Incoming: Just curious, what result did "CCCCCC[C@@H](CCC)C(=O)O" get here?
Outgoing: 0

Incoming: Just curious, what result did "CC(C)(Oc1ccc(Cl)cc1)C(=O)OCCCOC(=O)C(C)(C)Oc1ccc(Cl)cc1" get here?
Outgoing: 0

Incoming: Just curious, what result did "CCN1CCN(C(=O)N[C@@H](C(=O)N[C@@H]2C(=O)N3[C@@H]2SC(C)(C)[C@H]3C(=O)O)c2ccccc2)C(=O)C1=O" get here?
Outgoing: 0

Incoming: Just curious, what result did "Cc1ccc(C(=O)C(=O)O)cc1C" get here?
Outgoing: 0

Incoming: Just curious, what result did "Cc1nc2n(c(=O)c1CCN1CCC(C(=O)c3ccc(F)cc3)CC1)CCS2" get here?
Outgoing: 0

Incoming: Just curious, what result did "C=CCOc1cc(Cl)ccc1C(=O)NCCN(CC)CC" get here?
Outgoing: 0

Incoming: Just curious, what result did CCC(C(=O)NC(=O)NC(C)=O)c1ccccc1 (stereo not drawn) get here?
Outgoing: 0

Incoming: Just curious, what result did "C/C(=C1\CCOC(=O)S1)N(C=O)Cc1cnc(C)nc1N" get here?
Outgoing: 0

Incoming: Just curious, what result did "CCOC(=O)C1=C(C)NC(C)=C(C(=O)OCC)C1c1ccccc1/C=C/C(=O)OC(C)(C)C" get here?
Outgoing: 1

Incoming: Just curious, what result did Nc1ccc(C(=O)OCC(O)CO)cc1 (stereo not drawn) get here?
Outgoing: 0

Incoming: Just curious, what result did "CC(=O)O[C@H]1CC[C@@]2(C)C(=CC[C@@H]3[C@@H]2CC[C@]2(C)C(C(C)=O)=CC[C@@H]32)C1" get here?
Outgoing: 0

Incoming: Just curious, what result did "COC(=O)c1cc(Cl)ccc1OC" get here?
Outgoing: 0

Incoming: Just curious, what result did "OCCc1ccccc1" get here?
Outgoing: 0

Incoming: Just curious, what result did "CCCCN(CCN(CCCC)C(=O)N1CCOCC1)C(=O)N1CCOCC1" get here?
Outgoing: 0

Incoming: Just curious, what result did Cc1oc(-c2ccccc2)nc1CCC(=O)c1ccc(CC2SC(=O)NC2=O)cc1 (stereo not drawn) get here?
Outgoing: 0

Incoming: Just curious, what result did "Cc1cccc(C)c1NC(=O)c1cc(S(N)(=O)=O)c(Cl)cc1O" get here?
Outgoing: 0

Incoming: Just curious, what result did "Cc1cc(O)c2c(O)c3c(O)cccc3cc2c1" get here?
Outgoing: 0

Incoming: Just curious, what result did Cc1ccc(Cl)c(OCC(O)CNC(C)(C)C)c1 (stereo not drawn) get here?
Outgoing: 0

====

Test system: MKL-2
Assay: qHTS assay to identify novel small-molecules to repurpose for Merkel cell carcinoma treatment (AID 1296009); further: nearly all actives have a fitted effect of over 60% in size
Conditions: MCC and control cell lines, CellTiter-Glo viability, 72 h; series mostly up to 46 µM
From the text: MCC is a rare and aggressive neuroendocrine skin cancer with limited treatment options. Approximately 80% of MCCs have the Merkel cell polyomavirus (MCPyV) DNA integrated into the host genome (virus-positive: VP-MCC) and viral oncogenes drive oncogenesis. The remaining MCCs are virus-negative (VN-MCC) and are caused by UV mutagenesis. […] Using cell viability as a readout (CellTiter-Glo assay) we found both overlapping and distinct drugs that can be repurposed for the treatment of VP-MCC and VN-MCC. […]
Inconclusive results are not listed. Activity calls are given as the source filed them. Calls follow the shape of the dose curve; as a rule, active = well fitted inhibition curve with a large enough effect; inconclusive = small, poorly fitted or top-dose-only effect; inactive = flat fitted curve, though single readings scatter.
Your reply should match one of these outcome classes. active, inactive

Incoming: Just curious, what result did "O=c1[nH]sc2cc(Cl)ccc12" get here?
Outgoing: inactive

Incoming: Just curious, what result did "O=C(CCOCCOCCOCCOCCC(=O)Nc1c(I)cc(I)c(C(=O)O)c1I)Nc1c(I)cc(I)c(C(=O)O)c1I" get here?
Outgoing: inactive

Incoming: Just curious, what result did "C[C@]12CCC(=O)C=C1CC[C@@H]1[C@@H]2[C@@H](O)C[C@@]2(C)[C@H]1CC[C@]2(O)C(=O)COC(=O)CCC(=O)O" get here?
Outgoing: inactive

Incoming: Just curious, what result did "NS(=O)(=O)c1ccc(N2CCCCS2(=O)=O)cc1" get here?
Outgoing: inactive

Incoming: Just curious, what result did "C[C@@H](C1=C(CCN(C)C)Cc2ccccc21)c1ccccn1" get here?
Outgoing: inactive

Incoming: Just curious, what result did "Cc1nc([N+](=O)[O-])cn1-c1ccc([N+](=O)[O-])cc1" get here?
Outgoing: inactive

Incoming: Just curious, what result did "O=C1NC(c2ccccc2)(c2ccccc2)C(=O)N1COP(=O)(O)O" get here?
Outgoing: inactive

Incoming: Just curious, what result did "Oc1cccc2[nH]ccc12" get here?
Outgoing: inactive

Incoming: Just curious, what result did "O=C(O)c1cn(C2CC2)c2cc(Cl)c(F)cc2c1=O" get here?
Outgoing: inactive

Incoming: Just curious, what result did "Nc1cccc2c(N)cccc12" get here?
Outgoing: active

Incoming: Just curious, what result did "C=CCOc1cc(Cl)ccc1C(=O)NCCN(CC)CC" get here?
Outgoing: inactive

Incoming: Just curious, what result did "CCOC(=O)C(=O)c1csc(NC=O)n1" get here?
Outgoing: inactive

====

System: MKL-2
Assay: qHTS assay to identify novel small-molecules to repurpose for Merkel cell carcinoma treatment (AID 1296009); further: nearly all actives have a fitted effect of over 60% in size
Details: MCC and control cell lines, CellTiter-Glo viability, 72 h; series mostly up to 46 µM
Excerpt: MCC is a rare and aggressive neuroendocrine skin cancer with limited treatment options. Approximately 80% of MCCs have the Merkel cell polyomavirus (MCPyV) DNA integrated into the host genome (virus-positive: VP-MCC) and viral oncogenes drive oncogenesis. The remaining MCCs are virus-negative (VN-MCC) and are caused by UV mutagenesis. […] Using cell viability as a readout (CellTiter-Glo assay) we found both overlapping and distinct drugs that can be repurposed for the treatment of VP-MCC and VN-MCC. […]
Results filed as inconclusive are left out. The source made the active and inactive calls. Calls follow the shape of the dose curve; as a rule, active = well fitted inhibition curve with a large enough effect; inconclusive = small, poorly fitted or top-dose-only effect; inactive = flat fitted curve, though single readings scatter.
Your reply should match one of these outcome classes. 1 (yes) (active), 0 (no) (inactive)

Incoming: Just curious, what result did "CC(=O)OCC(=O)Nc1cc(C#N)cc(NC(=O)COC(C)=O)c1Cl" get here?
Outgoing: 0 (no)

Incoming: Just curious, what result did "COc1ccc2c(c1)CCCC2=O" get here?
Outgoing: 0 (no)

Incoming: Just curious, what result did "O=C(O)CCCC[C@@H]1SC[C@@H]2NC(=O)N[C@@H]21" get here?
Outgoing: 0 (no)

Incoming: Just curious, what result did "O=C(O)c1ccc(OCCN2CCCCC2)cc1" get here?
Outgoing: 0 (no)

Incoming: Just curious, what result did "CCC1=C[C@@H]2CN(C1)Cc1c([nH]c3ccccc13)[C@@](C(=O)OC)(c1cc3c(cc1OC)N(C)[C@H]1[C@@](O)(C(=O)OC)[C@H](OC(C)=O)[C@]4(CC)C=CCN5CC[C@]31[C@@H]54)C2" get here?
Outgoing: 1 (yes)

Incoming: Just curious, what result did "COc1cc(S(N)(=O)=O)cc(C(=O)O)c1OC" get here?
Outgoing: 0 (no)

Incoming: Just curious, what result did "CN(C)CCN(Cc1ccsc1)c1ccccn1" get here?
Outgoing: 0 (no)

Incoming: Just curious, what result did "OCc1c[nH]c2ccccc12" get here?
Outgoing: 1 (yes)

Incoming: Just curious, what result did CN1C(CSCC(F)(F)F)Nc2cc(Cl)c(S(N)(=O)=O)cc2S1(=O)=O (stereo unspecified) get here?
Outgoing: 0 (no)

Incoming: Just curious, what result did "CC(=O)Nc1c(I)c(NC(C)=O)c(I)c(C(=O)O)c1I" get here?
Outgoing: 0 (no)

Incoming: Just curious, what result did "CCCCCCCCCCCCCCCC[N+](C)(C)Cc1ccccc1" get here?
Outgoing: 1 (yes)
